Data credit: ChEMBL document CHEMBL1201862

Test system: MOLT-4
assayName: NCI tumour cell line growth inhibition, 48 h
The source made the active and inactive calls. No stated cut-off is given here; in the data, active = GI50 up to about 1.1 µM and inactive = higher.
// allowed return values: T for active, F for inactive

| molecule | className |
| --- | --- |
| CC(=O)OC(C)c1cc2c(s1)C(=O)c1sccc1C2=O (centres undefined) | F |

**Q:** Give the logged outcome of this assay for the following molecule: `Cc1cc(S(=O)(=O)Nc2nc3ccccc3nc2-c2cccc([N+](=O)[O-])c2)c(S)cc1Cl`
**A:** F

**Q:** Give the logged outcome of this assay for the following molecule: `CCOC(=O)Oc1ccc2c(c1)c(=O)c1c(NCCN(CC)CC)ccc3nnn2c31`
**A:** T

**Q:** Give the logged outcome of this assay for the following molecule: `CCOC(=O)NNC(=O)NCc1cccc(CNC(=O)NNC(=O)OCC)c1`
**A:** F

**Q:** Give the logged outcome of this assay for the following molecule: O=C1C(Cl)N(c2cccc([N+](=O)[O-])c2)C1c1c[nH]c2ccccc12 (centres undefined)
**A:** F

**Q:** Give the logged outcome of this assay for the following molecule: O[C@]12C=C(c3nccc4c3[nH]c3ccccc34)[C@@H]3CCN(CCCC/C=C\CC1)C[C@@]31CC3/C=C\CCCCN3[C@H]12 (some centres undefined)
**A:** T

**Q:** Give the logged outcome of this assay for the following molecule: `CCCCCCCCCCCCOCCCCCCCCC/C=C/c1ccc2c(c1)OCCOCCOCCOCCO2`
**A:** F

**Q:** Give the logged outcome of this assay for the following molecule: `CC(C)(C)c1ccc(O)c(CN(Cc2cc(C(C)(C)C)ccc2O)c2ccccc2)c1`
**A:** F

---

Tested on: OVCAR-3
assayName: NCI tumour cell line growth inhibition, 48 h
The source made the active and inactive calls. Cut-off read from the data, not from the text of the source: active = GI50 up to about 1.1 µM and inactive = higher.
resultType: GI50

**Q:** For the compound N#CC(C(=O)C(=O)Nc1ccc(Cl)c(Cl)c1)c1ccc(Cl)cc1 (stereo not given) , what GI50 is on record?
**A:** 37.7 µM (inactive)

**Q:** For the compound CC(=O)N(CN1C(=O)CCC1C(=O)O)c1ccccc1Cl (stereo not given) , what GI50 is on record?
**A:** > 100 µM (inactive)

**Q:** For the compound `COc1cc2c(c(OC)c1OC)-c1ccc(SC)c(=O)cc1[C@@H](NC(=O)c1ccc(C#N)cc1)CC2` , what GI50 is on record?
**A:** < 0.01 µM (active)

---

Test system: NCI-H460
assayName: NCI tumour cell line growth inhibition, 48 h
Calls of active or inactive are those of the source. Cut-off read from the data, not from the text of the source: active = GI50 up to about 1.1 µM and inactive = higher.
resultType: GI50

| molecule | testTarget | GI50 |
| --- | --- | --- |
| CC1OC(O)CC(N(C)C)C1O.CC1OC(O)CCC1O.CCC1CC(O)c2c(O)c3c(c(O)c2C1O)C(=O)c1cccc(O)c1C3=O (configuration not stated) | NCI-H460 | 0.00486 µM (active) |
| CC1=C(CCC(C)CO)O[C@H]2C[C@H]3[C@@H]4CC[C@H]5C[C@@H](O)CC[C@]5(C)[C@H]4CC(=O)[C@]3(C)[C@@H]12 (some centres not stated) | NCI-H460 | 6.87 µM (inactive) |
| Cc1cc(Cl)ccc1NC(=O)/C(CC(=O)CC(c1ccccc1)c1c(O)c2ccccc2oc1=O)=N\O (configuration not stated) | NCI-H460 | > 100 µM (inactive) |
| O=C1CCCCc2cccc(O)c21 | NCI-H460 | > 100 µM (inactive) |

**Q:** Notebook: pull reported GI50 for NCI-H460, entry `O=P1(Oc2ccc(Cl)cc2Cl)Oc2cc3ccccc3cc2O1`
**A:** 49.9 µM (inactive)

**Q:** Notebook: pull reported GI50 for NCI-H460, entry CC1OC(OC2C(O[C@@H]3C[C@@H]4CC[C@@H]5[C@H](CC[C@]6(C)[C@@H]7[C@H](C[C@@H]56)O[C@]5(CC[C@@H](C)CO5)[C@H]7C)[C@@]4(C)C[C@H]3O)OC(CO)C(OC3OC(CO)C(O)C(O)C3O)C2O)C(O)C(O)C1O (some centres not stated)
**A:** 1.76 µM (inactive)

**Q:** Notebook: pull reported GI50 for NCI-H460, entry CC(C)=CC[S+]([O-])c1ccccc1NC1=CC(=O)CC(C)(C)C1 (configuration not stated)
**A:** > 100 µM (inactive)
